These entries and their values trace back to paper PMC8328229.

Molecular target: MBP-tagged Methanosarcina acetivorans YcaO (Methanosarcina acetivorans)
Assay: fluorescence polarisation
parameter.measured: fold reduction of affinity against the wild-type peptide (fold)

// known answers, use as guide
RLGFFGFDLAD [MBP-tagged McrA peptide, Ala substitution of Gln469] | 24
RLGFFGFDAQD [MBP-tagged McrA peptide, Ala substitution of Leu468] | 14
RLGFAGFDLQD [MBP-tagged McrA peptide, Ala substitution of Phe464] | 11
RLGFFGFALQD [MBP-tagged McrA peptide, Ala substitution of Asp467] | 12
RLAFFGFDLQD [MBP-tagged McrA peptide, Ala substitution of Gly462] | 14

[1] RLGFFAFDLQD [MBP-tagged McrA peptide, Ala substitution of Gly465]
[2] RAGFFGFDLQD [MBP-tagged McrA peptide, Ala substitution of Leu461]
Query :: Lab note: check whether 1 or 2 shows the higher recorded fold reduction of affinity against the wild-type peptide. Indicate which entry you chose by stating its label.
Result :: 2
